Test system: zebrafish Estrogen Receptor (ER2a), gene 317734
Assay: ATG_zfER2a_XSP2: Attagene TRANS-FACTORIAL Multi-Species (XSP2) HepG2 Assay for zebrafish Estrogen Receptor (ER2a) (AID 2283818);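 note: hits raise reporter mRNA so AC50 reflects activation of zebrafish ER2a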
Inconclusive results are not listed. Calls of active or inactive are those of the source. Rule for the calls: active = hit-call score of the fitted dose curve at least 0.9, where 1 is the maximum; inconclusive = response in the unintended direction; inactive = score below 0.9.
Log the outcome using a class from label 1 (active), label 0 (inactive)

Example cases with answers are listed next.
Query: What outcome does the record of this test show for CCCCC(CC)COC(=O)c1ccccc1C(=O)O (centres undefined) ?
Result: label 0

Query: What outcome does the record of this test show for Oc1ccc(C(c2ccc(O)cc2)C(Cl)(Cl)Cl)cc1 ?
Result: label 1

Query: What outcome does the record of this test show for CC(C)(c1ccc(O)cc1)c1ccc(O)cc1 ?
Result: label 1

Others:
Query: What outcome does the record of this test show for CC(=O)S[C@@H]1CC2=CC(=O)CC[C@]2(C)[C@H]2CC[C@@]3(C)[C@@H](CC[C@@]34CCC(=O)O4)[C@H]12 ?
Result: label 0

---

Read-out: Human Leukocyte Antigen - DR isotype (HLADR), HLA-DRA (gene 3122)
Test: BSK_CASM3C_HLADR: BioMAP Diversity Plus: CASM3C Assay for Human Leukocyte Antigen - DR isotype (HLADR) Biomarker Activity (AID 2283043);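 note: cell-surface HLA-DR protein level quantified by ELISA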
Conditions: primary human coronary artery smooth muscle cells; actives raise or lower the signal
Activity calls are given as the source filed them. How the source made its calls: active means hit-call score of the fitted dose curve at least 0.9, where 1 is the maximum; inactive means score below 0.9.
Log the outcome using a class from TRUE = active, FALSE = inactive

Example cases with answers are listed next.
Query: What outcome does the record of this test show for CC1(C)C(C=C(Cl)Cl)C1C(=O)OCc1cccc(Oc2ccccc2)c1 (stereo unspecified) ?
Result: FALSE

Query: What outcome does the record of this test show for COc1nc(C)nc(NC(=O)NS(=O)(=O)c2ccccc2OCCCl)n1 ?
Result: FALSE

Query: What outcome does the record of this test show for C#CCOC(=O)[C@@H](C)Oc1ccc(Oc2ncc(Cl)cc2F)cc1 ?
Result: FALSE

Others:
Query: What outcome does the record of this test show for C[C@]12CC[C@@H]3c4ccc(O)cc4C[C@@H](CCCCCCCCCS(=O)CCCC(F)(F)C(F)(F)F)[C@H]3[C@@H]1CC[C@@H]2O (stereo partly specified) ?
Result: FALSE

Query: What outcome does the record of this test show for C=CCOC(Cn1ccnc1)c1ccc(Cl)cc1Cl (stereo unspecified) ?
Result: FALSE

---

Read-out: HGF (gene 3082)
Experiment: LTEA_HepaRG_HGF: Life Technologies and Expression Analysis (LTEA) Assay for Hepatocyte Growth Facto (HGF) using HepaRG (AID 2283505)
Conditions: mRNA level, 48 h; actives raise or lower the signal
Calls of active or inactive are those of the source. Rule for the calls: active = hit-call score of the fitted dose curve at least 0.9, where 1 is the maximum; inactive = score below 0.9.
Log the outcome using a class from yes (active), no (inactive)

Query: What outcome does the record of this test show for CCNc1nc(N)nc(Cl)n1 ?
Result: no

Query: What outcome does the record of this test show for O=C(O)c1ccccc1 ?
Result: no

Query: What outcome does the record of this test show for C#CCOC(=O)[C@@H](C)Oc1ccc(Oc2ncc(Cl)cc2F)cc1 ?
Result: no

Query: What outcome does the record of this test show for CCCCC(CC)CN1C(=O)C2C3C=CC(C3)C2C1=O (stereo not given) ?
Result: no

Query: What outcome does the record of this test show for CC(C)CCCCCCc1ccc(O)cc1 ?
Result: no

Query: What outcome does the record of this test show for O=C(O)C1(C(=O)Nc2ccc(Cl)cc2Cl)CC1 ?
Result: no

Query: What outcome does the record of this test show for OB(O)O ?
Result: no

Query: What outcome does the record of this test show for S=C([S-])NCCNC(=S)[S-].[Mn+2] ?
Result: yes

Query: What outcome does the record of this test show for CC(C)(c1ccc(O)cc1)c1ccc(O)cc1 ?
Result: no

Query: What outcome does the record of this test show for COC(=O)c1ccc(I)cc1S(=O)(=O)NC(=O)Nc1nc(C)nc(OC)n1 ?
Result: no

Others:
Query: What outcome does the record of this test show for CC(C)(C)[C@@H](O)[C@@H](Cc1ccc(Cl)cc1)n1cncn1 ?
Result: no

Query: What outcome does the record of this test show for C=CCOC(Cn1ccnc1)c1ccc(Cl)cc1Cl (stereo not given) ?
Result: no

Query: What outcome does the record of this test show for O=C(Nc1ccc([N+](=O)[O-])cc1Cl)c1cc(Cl)ccc1O ?
Result: yes

Query: What outcome does the record of this test show for CCCCCCC(C)OC(=O)COc1nc(F)c(Cl)c(N)c1Cl (stereo not given) ?
Result: no

Query: What outcome does the record of this test show for CCCOC(=O)c1ccc(C(=O)OCCC)nc1 ?
Result: no

Query: What outcome does the record of this test show for C[C@]12CC[C@@H]3c4ccc(O)cc4C[C@@H](CCCCCCCCCS(=O)CCCC(F)(F)C(F)(F)F)[C@H]3[C@@H]1CC[C@@H]2O (stereo not given in full) ?
Result: yes

Query: What outcome does the record of this test show for CCCCC(CC)COC(=O)c1ccccc1C(=O)O (stereo not given) ?
Result: no

Query: What outcome does the record of this test show for CC(=O)[C@H]1CC[C@H]2[C@@H]3CCC4=CC(=O)CC[C@]4(C)[C@H]3CC[C@]12C ?
Result: yes

Query: What outcome does the record of this test show for N[C@@H](Cc1cc(I)c(Oc2ccc(O)c(I)c2)c(I)c1)C(=O)O ?
Result: no

Query: What outcome does the record of this test show for CCCCOC(=O)C(C)Oc1ccc(Oc2ccc(C(F)(F)F)cn2)cc1 (stereo not given) ?
Result: no

Query: What outcome does the record of this test show for CCC(C)OC(=O)N1CCCCC1CCO (stereo not given) ?
Result: no

Query: What outcome does the record of this test show for CC1(C)C(C=C(Cl)Cl)C1C(=O)OCc1cccc(Oc2ccccc2)c1 (stereo not given) ?
Result: no

Query: What outcome does the record of this test show for CCCCCOC(=O)COc1cc(N2C(=O)C3=C(CCCC3)C2=O)c(F)cc1Cl ?
Result: no

Query: What outcome does the record of this test show for CCOC(=O)COc1cc(-n2ncc(C(F)(F)F)c(C)c2=O)c(F)cc1Cl ?
Result: no

Query: What outcome does the record of this test show for c1ccc2[nH]c(-c3cscn3)nc2c1 ?
Result: no
